Assay: Apparent solubility in pH 6.8 phosphate buffer (shaker, HPLC)
Assay type: physicochemical
Settings: aqueous buffer, thermodynamic from solid; pH 6.8 phosphate buffer, 37° C., 2 h
quantity: solubility at 2 h

Entry `O=C(c1cc(Cc2n[nH]c(=O)c3ccccc23)ccc1F)N1CCN(C(=O)C2CC2)CC1` — recorded solubility at 2 h = < 100 µg/mL
